system_tested: Human N-acetyl-β-hexosaminidase A (HexA) (Homo sapiens, UniProt P06865+P07686)
Sequence (P06865 89-529): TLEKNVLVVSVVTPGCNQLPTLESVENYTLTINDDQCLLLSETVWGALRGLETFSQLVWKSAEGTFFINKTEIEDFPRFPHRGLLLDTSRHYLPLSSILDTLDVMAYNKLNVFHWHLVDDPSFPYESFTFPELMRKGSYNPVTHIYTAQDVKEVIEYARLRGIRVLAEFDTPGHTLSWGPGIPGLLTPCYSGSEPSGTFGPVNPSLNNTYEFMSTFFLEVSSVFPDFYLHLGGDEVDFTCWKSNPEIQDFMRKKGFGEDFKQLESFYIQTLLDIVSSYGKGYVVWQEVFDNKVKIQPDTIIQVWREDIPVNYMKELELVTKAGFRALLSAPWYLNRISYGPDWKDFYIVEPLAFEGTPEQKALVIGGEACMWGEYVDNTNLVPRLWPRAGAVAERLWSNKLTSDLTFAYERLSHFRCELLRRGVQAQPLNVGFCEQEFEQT
Sequence (P06865 23-74 partner limits assumed): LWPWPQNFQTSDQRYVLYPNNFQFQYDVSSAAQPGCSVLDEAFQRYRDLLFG
Sequence (P07686 315-556 limits assumed): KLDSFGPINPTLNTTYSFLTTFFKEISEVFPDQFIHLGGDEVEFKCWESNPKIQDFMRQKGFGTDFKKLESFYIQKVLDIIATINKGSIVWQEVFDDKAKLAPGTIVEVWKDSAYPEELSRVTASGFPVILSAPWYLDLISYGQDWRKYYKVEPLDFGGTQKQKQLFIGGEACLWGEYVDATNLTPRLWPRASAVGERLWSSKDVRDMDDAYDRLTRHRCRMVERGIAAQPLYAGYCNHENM
Sequence (P07686 122-311 limits assumed): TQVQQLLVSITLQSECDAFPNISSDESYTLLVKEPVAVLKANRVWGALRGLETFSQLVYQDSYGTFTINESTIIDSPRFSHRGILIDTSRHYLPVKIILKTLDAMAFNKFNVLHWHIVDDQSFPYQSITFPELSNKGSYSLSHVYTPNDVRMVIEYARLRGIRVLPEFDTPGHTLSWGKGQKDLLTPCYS
Sequence (P07686 50-107 partner limits assumed): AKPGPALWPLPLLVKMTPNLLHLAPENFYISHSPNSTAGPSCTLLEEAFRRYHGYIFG
assay_protocol: Real time MUG assay of purified hexosaminidase A inhibition (screen and IC50)
measurement_conditions: purified Hex A, NINDS collection hits and related compound
pIC50: −log10 of the molar value.
test_readout: pIC50

What reported pIC50 corresponds to "Nc1nc(N)c2[nH]cnc2n1" on Human N-acetyl-β-hexosaminidase A (HexA) (Homo sapiens, UniProt P06865+P07686)?
~6.10

###

system_tested: human glucocerebrosidase (GCC) (Homo sapiens, UniProt P04062)
Sequence (P04062 40-536): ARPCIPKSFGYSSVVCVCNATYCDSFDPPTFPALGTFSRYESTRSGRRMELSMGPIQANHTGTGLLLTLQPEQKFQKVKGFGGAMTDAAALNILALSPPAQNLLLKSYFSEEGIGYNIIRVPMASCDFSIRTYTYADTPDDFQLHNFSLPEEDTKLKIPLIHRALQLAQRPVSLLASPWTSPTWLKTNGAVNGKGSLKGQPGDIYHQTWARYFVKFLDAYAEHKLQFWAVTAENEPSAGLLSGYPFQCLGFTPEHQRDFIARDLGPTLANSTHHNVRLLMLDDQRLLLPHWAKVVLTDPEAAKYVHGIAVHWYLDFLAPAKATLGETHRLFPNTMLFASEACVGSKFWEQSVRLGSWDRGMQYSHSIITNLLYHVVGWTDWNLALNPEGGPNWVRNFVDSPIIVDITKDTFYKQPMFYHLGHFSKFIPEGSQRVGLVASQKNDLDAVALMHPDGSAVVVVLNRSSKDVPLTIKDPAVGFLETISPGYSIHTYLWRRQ
assay_protocol: Real time Glc-MU screen of glucocerebrosidase inhibition
Assay type: biochemical
measurement_conditions: replicate 2; compound 20 μM; Glc-MU 625 μM; read-out: R2 (% residual enzyme activity)
Threshold-based label: remaining activity at 20 µM under 40% gives Fulfilled, remaining activity at 20 µM not under 40% gives Not fulfilled.

These recorded examples may help you get a feel for the data.
1) Cc1ccc(NC(=S)NNC(=O)c2nn(-c3ccccc3)nc2C)cc1C [MAC-0000090] | Fulfilled
2) Oc1c(Cl)cc(Cl)cc1/C=N/CCSCc1ccccc1Cl [MAC-0000924] | Not fulfilled
3) COc1ccccc1NC(=S)NNC(=S)NC1CC2C=CC1C2 (stereo not shown) [MAC-0000232] | Not fulfilled

Is remaining activity at 20 µM of O=c1[nH][nH]c(=S)n1-c1ccc(Cl)c(Cl)c1 [MAC-0000552] strictly below 40%?
Fulfilled

Same for CC(C)(C)c1ccc(C(=O)NNC(=S)Nc2ccc3c(c2)OCO3)cc1 [MAC-0000993]
Not fulfilled

Now try O=C(CSCc1cccc2ccccc12)NNC(=S)Nc1cccc(C(F)(F)F)c1 [MAC-0000685] .
Fulfilled

How about COCCOc1ccccc1NC(=S)NNC(=O)c1ccc([N+](=O)[O-])cc1 [MAC-0000398] ?
Not fulfilled

###

system_tested: human glucocerebrosidase (GCC) (Homo sapiens)
assay_protocol: Real time Glc-MU screen of glucocerebrosidase inhibition
Type: biochemical
measurement_conditions: replicate 1; compound 20 μM; Glc-MU 625 μM; read-out: R1 (% residual enzyme activity)
test_readout: remaining activity at 20 µM
State the value, then name its unit.

Example entries and their recorded answers appear below.
1. Cc1ccc(NC(=S)NNC(=O)c2nn(-c3ccccc3)nc2C)cc1C | 14.8%
2. CC(C)(C)c1ccc(C(=O)NNC(=S)Nc2ccc3c(c2)OCO3)cc1 | 59.1%
3. O=c1[nH][nH]c(=S)n1-c1ccc(Cl)c(Cl)c1 | 23.4%
4. COc1ccccc1NC(=S)NNC(=S)NC1CC2C=CC1C2 (stereo not shown) | 63.5%

Please report the recorded remaining activity at 20 µM for "Oc1c(Cl)cc(Cl)cc1/C=N/CCSCc1ccccc1Cl" .
59.4%

Same for "COCCOc1ccccc1NC(=S)NNC(=O)c1ccc([N+](=O)[O-])cc1"
49.5%

Could you do the same for "O=C(CSCc1cccc2ccccc12)NNC(=S)Nc1cccc(C(F)(F)F)c1" , please?
25.5%
